ASSAYED_TARGET: cis pT231-tau (P-tau peptide, pure cis or cis-locked)
ASSAY_DETAILS: Biacore assay of binding affinity of humanized cis mAb variants
Exercise: state measured pKd for each of the molecules provided.
pKd field: float, defined as -log10 of concentration (mol/L).

Fill in the blank: the reported pKd of HT1: humanized cis-pThr231-tau mAb; heavy chain variable domain SEQ ID NO: 25, light chain variable domain SEQ ID NO: 16 (antibody, V domains shown) VH: QVQLVQSGAELKKPGASVKMSCKASGYTFTSYWIHWVKQRPGQGLEWIGVIDPSDSYTRYNQKFKGRATLTVDTSASTAYMQLSSLTSEDSAVYYCTTWEVDYWGQGTTVTVSS VL: DVVMTQSPLSLPVTLGQPASISCRSSQSLVHSDGNTYLHWYLQKPGQSPQLLIYKVSNRFSGVPDRFSGSGSGTDFTLKISRVEAEDVGVYFCSQSTHVPWTFGGGTKVEIK is ____.
8.74

Fill in the blank: the reported pKd of HT18: humanized cis-pThr231-tau mAb; heavy chain variable domain SEQ ID NO: 29, light chain variable domain SEQ ID NO: 20 (antibody, V domains shown) VH: QVQLVQSGAEVKKPGSSVKVSCKASGYTFTSYWIHWVRQAPGQGLEWMGVIDPSDSYTRYNQKFKGRVTITRDTSMSTAYTELSSLRSEDTAVYYCTTWEVDYWGQGTLVTVSS VL: DIQMTQSPSTLSASVGDRVTITCRSSQSLVHSDGNTYLHWYQQKPGKAPKLLIYKVSNRFSGVPSRFSGSGSGTEFTLTISSLQPDDFATYYCSQSTHVPWTFGQGTKLEIK is ____.
8.72

Fill in the blank: the reported pKd of HT9: humanized cis-pThr231-tau mAb; heavy chain variable domain SEQ ID NO: 25, light chain variable domain SEQ ID NO: 19 (antibody, V domains shown) VH: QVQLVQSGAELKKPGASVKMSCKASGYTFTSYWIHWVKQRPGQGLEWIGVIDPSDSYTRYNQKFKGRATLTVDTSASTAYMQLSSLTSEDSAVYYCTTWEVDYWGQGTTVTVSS VL: DVVMTQSPLSLPVTLGQPASISCRSSQSLVHSDGNTYLHWYLQKPGQSPQLLIYKVSNRFSGVPDRFSGSGSGTDFTLKISRVEAEDVGVYYCSQSTHVPWTFGGGTKVEIK is ____.
8.72

Fill in the blank: the reported pKd of HT8: humanized cis-pThr231-tau mAb; heavy chain variable domain SEQ ID NO: 28, light chain variable domain SEQ ID NO: 18 (antibody, V domains shown) VH: QVQLVQSGAEVKKPGASVKVSCKASGYTFTSYWIHWVRQRPGQGLEWIGVIDPSDSYTRYNQKFKGRVTITRDTSASTAYMELSSLRSEDTAVYYCTTWEVDYWGQGTLVTVSS VL: DVVMTQSPLSLPVTLGQPASISCRSSQSLVHSDGNTYLHWYLQKPGQSPQLLIYKVSNRDSGVPDRFSGSGSGTDFTLKISRVEAEDVGVYFCSQSTHVPWTFGGGTKVEIK is ____.
8.11

Fill in the blank: the reported pKd of HT4: humanized cis-pThr231-tau mAb; heavy chain variable domain SEQ ID NO: 28, light chain variable domain SEQ ID NO: 16 (antibody, V domains shown) VH: QVQLVQSGAEVKKPGASVKVSCKASGYTFTSYWIHWVRQRPGQGLEWIGVIDPSDSYTRYNQKFKGRVTITRDTSASTAYMELSSLRSEDTAVYYCTTWEVDYWGQGTLVTVSS VL: DVVMTQSPLSLPVTLGQPASISCRSSQSLVHSDGNTYLHWYLQKPGQSPQLLIYKVSNRFSGVPDRFSGSGSGTDFTLKISRVEAEDVGVYFCSQSTHVPWTFGGGTKVEIK is ____.
8.62

Fill in the blank: the reported pKd of HT16: humanized cis-pThr231-tau mAb; heavy chain variable domain SEQ ID NO: 27, light chain variable domain SEQ ID NO: 17 (antibody, V domains shown) VH: QVQLVQSGAEVKKPGASVKVSCKASGYTFTSYWIHWVRQRPGQGLEWIGVIDPSDSYTRYNQKFKGRVTLTVDTSASTAYMELSSLRSEDTAVYYCTTWEVDYWGQGTLVTVSS VL: DVVMTQSPLSLPVTLGQPASISCRSSQSLVHSDGNTYLNWYLQKPGQSPQLLIYKVSNRFSGVPDRFSGSGSGTDFTLKISRVEAEDVGVYFCSQSTHVPWTFGGGTKVEIK is ____.
8.49

Fill in the blank: the reported pKd of HT2: humanized cis-pThr231-tau mAb; heavy chain variable domain SEQ ID NO: 26, light chain variable domain SEQ ID NO: 16 (antibody, V domains shown) VH: QVQLVQSGAEVKKPGASVKMSCKASGYTFTSYWIHWVKQRPGQGLEWIGVIDPSDSYTRYNQKFKGRATLTVDTSASTAYMELSSLRSEDTAVYYCTTWEVDYWGQGTLVTVSS VL: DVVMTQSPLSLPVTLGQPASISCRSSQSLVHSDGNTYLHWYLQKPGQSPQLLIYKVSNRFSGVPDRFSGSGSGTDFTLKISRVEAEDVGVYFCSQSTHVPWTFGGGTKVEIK is ____.
8.79

Fill in the blank: the reported pKd of HT17: humanized cis-pThr231-tau mAb; heavy chain variable domain SEQ ID NO: 28, light chain variable domain SEQ ID NO: 17 (antibody, V domains shown) VH: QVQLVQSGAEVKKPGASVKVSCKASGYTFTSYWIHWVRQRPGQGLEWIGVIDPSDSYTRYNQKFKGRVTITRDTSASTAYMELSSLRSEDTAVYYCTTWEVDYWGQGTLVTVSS VL: DVVMTQSPLSLPVTLGQPASISCRSSQSLVHSDGNTYLNWYLQKPGQSPQLLIYKVSNRFSGVPDRFSGSGSGTDFTLKISRVEAEDVGVYFCSQSTHVPWTFGGGTKVEIK is ____.
5.31
